assay: Mouse plasma and brain exposure after IP dose; format: in vivo, C57Bl6 mice; details: C57Bl6, mouse, brain, ip, 10 mg/kg
metric.name: Kp at 2 h

compound	metric.name	test.result
CS(=O)(=O)N1CCC(CN(Cc2ccc(Cl)cc2)Cc2ccc([N+](=O)[O-])s2)C1 (stereo not shown) [Compound 12j]	Kp at 2 h	2.42
